Examples of molecules with documented microsomal CLint at 2 µM follow.
- method: Intrinsic clearance in human liver microsomes at 2 uM assessed per mg of protein
- Assay type: ADME, Microsome
- measurement_conditions: read-out: CLH

Examples with answers:
{"columns": ["smiles_code", "measurement"],
 "data": [
  ["Cn1cncc1-c1c2c(=O)n(C3CC3)c(=O)n(CC3CC3)c2nn1Cc1ccnc2ccc(Cl)cc12", "< 14 µL/min/mg"],
  ["Cn1cc(C#N)cc1-c1c2c(=O)n(CCn3cccn3)c(=O)n(CC3CC3)c2nn1Cc1ccnc2ccc(Cl)cc12", "> 100 µL/min/mg"]
]}

Query: microsomal CLint at 2 µM; subject: "C#CCn1c(=O)c2c(-c3nc(C#N)cn3C)n(Cc3ccnc4ccc(Cl)cc34)nc2n(CC2CC2)c1=O"
< 14 µL/min/mg

Query: microsomal CLint at 2 µM; subject: "Cn1cc(C#N)nc1-c1c2c(=O)n(C)c(=O)n(CC3CC3)c2nn1Cc1ccnc2ccc(Cl)cc12"
< 14 µL/min/mg
